# RUN_DESCRIPTION: yeast display, Sf9 membrane polyspecificity reagent, FACS + sequencing; frameworks hold sequencing errors
ATTRIBUTE_MEASURED: polyreactivity (PSR sort gate)

Solved entries:
BIOPOLYMER_SEQUENCE	polyreactivity (PSR sort gate)
QVQLVESGGGLVQAGGSLRLSCAASGSTFRRNAMGWYRQAPGKERELVAAISGSGGSTYYADSVKGRFTISRDNAKNTVYLQMNSLKPEDTAVYYCAARVVKNYKSDSWGQGTQVTVSS	high polyreactivity
QVQLVESGGGLVQAGGSLRLSCAASGRTFYYYAMGWYRQAPGKERELVARIRSTGRTSYADSVKGRFTISRDNAKNTVYLQMNRLKPEDTAVYYCAAKYSSTAWSRRKFDYWGQGTQVTVSS	high polyreactivity
QVQLVESGGGLVQAGGSLRLSCAASGSTFGLYGMGWYRQAPGKERELVAAITYSGGGTYYADSVKGRFTISRDNAKNTVYLQMNSLKPEDTAVYYCAAEYYSSITGWYYYWGQGTLVTVSS	low polyreactivity
QVQLVDSGGGLVQAGASLRLSCAASGRTFYPYAMGWYRQAPAKERELDAAISSKGGITYYADSVKGRFTISRDNAKNTVYLQMNSLNPEDTAVYYCAALYTGESGYWGQGTQVSVSS	high polyreactivity
QVQLVESGGGLVQAGGSLRLSCAASGSTFTVYAMGWYRQAPGKERELVAAISSSTGSTYYADSVKGRFTISRDNAKNTVYLQMNSLKPEDTAVYYCAADVYQVTTSSYTEFEYWGQGTQVTVSS	low polyreactivity

Hi there! I need polyreactivity (PSR sort gate) for each item below, if you can.
1. QVQLVDSGGGLVQAGGSLRLSCAASGRTFNLYAMGWYRQAPGKERELVATIDWTGGSTYYADSVKGRFTISRDNAKNTVYLQMNSLKPEDTAVYYCNADRFADYDYWGQGTQVTVSS
2. QVQLVESGGGLVQAGGSLRLSCAASGIIFGTYAMGWYRQAPGKERELVAAIRRSGTGTYYADSVKGRFTISRDNAKNTVYLQMNSLKPEDTAVDYCNVVRSYAYDSWGQGTQVTVSS

[out]
1. low polyreactivity
2. high polyreactivity

Hi there! I need polyreactivity (PSR sort gate) for each item below, if you can.
1. QVQLVESGGGLVQAGGSLPLSCAASGSIFWRNAMGWYRQAPGKEREFVATITWSGDSTYYADSVKGRFTISRDNAKNTVYLQMNSLKPEDTAVYYYAAAYSNWHPGLDYWGQGTPVTVSS
2. QVQLVESGGGLVQAGGSLRLSCAASGNIFGKYAMGWYRQAPGKERELVAAISSGGRTNYADSVKGRFTISRDNAKNTVYLQMNSLKPEDTAVYYCAKRYFRTKGYYYWGQGTQVTVSS
3. QVQLVESGGGLVQAGGSLRLSCAASGRIFRYNAMGWYRQAPGKERELVATISRGGGSTYYADSVKGRFTISLDNAKNTVYLQMNSLKPEDTAVYYCATRYYQDIVGYSRYDYWGQGTQVTVSS
4. QVQLVESGGGLVQAGGSLRLSCAASGRILPGYAMGWYRQAPGKERELVAAIRGNGDSTYYADSVKGRFTISRDNAKNTVYLQMNSLKPEDTAVYYCAARRVSTIQRDSYRGRKYGYWGQGTQVTVSS

[out]
low polyreactivity
high polyreactivity
high polyreactivity
low polyreactivity

====

# RUN_DESCRIPTION: yeast display, Sf9 membrane polyspecificity reagent, FACS + sequencing; frameworks hold sequencing errors
ATTRIBUTE_MEASURED: polyreactivity (PSR sort gate)

Solved entries:
BIOPOLYMER_SEQUENCE	RESULT
QVQLVESGGGLVQAGGSLRLSCPASGRTFYGYPMGWYRQAPGKERELVAAISRRGGSTNYADSVKGRFTISRDHAKNTVYLQMNSRKPEDTAVYSCNANYYRTHYDYWGQGTQVTVSS	high polyreactivity
QVQLVESWGGLVQAGGSLRLSCADSGSIFGYYAMGWSRHAPGKETELVAAISSGGRTDYADSVKGRFTISRDNAKNTVYLQMNSRKQEDTAVYYCAALQRTGPYAGSSGYWGQGTQVTVSS	high polyreactivity
QVQLVESGGGLFQAGGSLRLSCAASGSIIRKYAMGWSIQAPGKERELVAAISRRTGNTYYADSVKGRFTISRDNAKNTVYLQMKSLKPEDTAVYYCAADYYSSSSWSEVDSWGQGTQVTVSS	high polyreactivity
QVQLVESGGGLVQAGGSLRLSCAASGRIWVNAMAWYRQAPRKEMEFVAAISTSSASTYYADSVKGRFTISRDNAKNTVYLQMNSLKPVDTAVYYCAARYLGKKFYYWGQGTQVTVSS	high polyreactivity
QVQLVESGGGLVHAGGSLRLSCAASGSIFGVNMGWYRQAPGKERELVASITSGGSTNYADSVKGRFTISRDNAKNTVYLQMNSLKPEDTAVYYCAARAERVREYNYWGQGTQVTVSS	low polyreactivity
QVQLVESGGGLVQAGGSLRLSCAASGRTFRSYAMGWYRQAPGKERELVAAISDGGSTNYADSVKGRFTISRDNAKNTVYLQMNSLKPEDTAVYYCAAEIFFAVFRFYYWGQGTQVTVSS	low polyreactivity
QVQLVESGGGLVQAGGSLRLSCAASGSTFSFYAMGWYRQAPGKERELVAVFTRGGSTYYADSVKGRFTISRDNAKNTVYLQMNSLKPEDTAVYYCAARSTSNGQRSLHYGYWGQGTQVTVSS	low polyreactivity
QVQLVESGGGLVQAGGSLRLSCDASGSIFILYAMGWYRQAPGKERELVAGITLSTGTTSYADSVKGRFTISRDNAKNTVYLQMNSLKPVDTAVYYCNAVPSQHDEFDYWGQGTQVTVSS	low polyreactivity
QVQLVESGGGLVQAGGSLRLSCAASGRIFEPYTMGWYRQAPGKEREFVATITASGDSTYYADSVKGRFTISRDNAKNTVYLQMNSLKPEDTAVYYCAAAPFGGYEYDYWGQGTQVTVSS	high polyreactivity
QVQLVESGAGLVQAGGSLRLSCAASGRIFYKYVMGWYRQAPGKERELVATITSGGSTYYADSVKGRFTISRDNAKNTVYLQMNSLKPEDTAVYYCATKQSRTRYDRYGYWGQGTQVNVSS	high polyreactivity

Hi there! I need polyreactivity (PSR sort gate) for each item below, if you can.
1. QLQLVESGGGLVQAGGSLRLSCAASGSTFATYAMGWYRQAPGKESELVAVITRGGSTYYADSVKGRFTISRDNAKNTVYLQMNSLKPEDTAVYYCAAKAYTYYARIGFDYWGQGTQVTVSS
2. QVQREESGGGLVQAGGSLRLSCVASGSTFRYYAMGWYRQSPGTERELVAAITWRGTSTYYADSVKGRFTISRDNAKNTVYLQMNSLKPEDTAVYYCNAAGYWPATGDYWGQGTQVTVSW
3. QVQLVESGGGLVQAGGSLRLSCAASGSIFRVYMGWYRQAPGKERELVATIRWSSGSTYYADSVKGRFTISRDNAKNTVYLQMNSLKPEDTAVYYCAVKGPYYDDYDYWGQGTQVTVSS
4. QVQLVESGGGLVQAGGSLRLSCAASGFIVSTKVMGWYRQAPGKERELVADINTGGSTSYADSVKGRFTNSRDNAKNTVYLQMNSLKPEDTAVYSCAAVLQYYYLSTDDPYDYWGQGTQVTVSS

[out]
high polyreactivity
high polyreactivity
low polyreactivity
low polyreactivity

====

# RUN_DESCRIPTION: yeast display, Sf9 membrane polyspecificity reagent, FACS + sequencing; frameworks hold sequencing errors

BIOPOLYMER_SEQUENCE	polyreactivity (PSR sort gate)
QVQLVESGGGLVQAGGSLRLSCAASGGIFPAYAMGWYRQAPGKERELVAAITSSGASTYADSVKGRFTISRDNAKNTVYLQMNSLKPEDTAVYYCNADDTTVILEMDYWGQGTQVTVSS	low polyreactivity
QVQLVESGGGLVQAGGSLRLSCAASGSTFSSSAMGWYRQAAGKERELVAAITSSGGSPYYADSVKGRLTISRDNAKNTVYLQMNSLKPEDTAVYYCAAADVIFWLYYYWGQGTQLTVSS	low polyreactivity

====

# RUN_DESCRIPTION: yeast display, Sf9 membrane polyspecificity reagent, FACS + sequencing; frameworks hold sequencing errors
ATTRIBUTE_MEASURED: polyreactivity (PSR sort gate)

Solved entries:
BIOPOLYMER_SEQUENCE	polyreactivity (PSR sort gate)
QVQLEESGGGLVQAGGSLRLSCAASGRTITNYAMGWYRQAPGKERELVASINSGGSTSYADSVKGRFTISRDNAKNTVYLQMNSLKPEDTAVYYCNKRYLKFWGHQYGYWGQGTQVTVSS	high polyreactivity
QVQLVESGGGLVQAGGSLRLSCAASGITFPGNAMGWYRQAPGKERELVAGISDGDSTNYADSVKARFTISRDNAKNTVYLQMNSLKPEDTAVYYCARDTELYVRWLDYWGQGTQVTVSS	low polyreactivity
QVQLVESGGGLVQAGGSLRLSCAASGGIFTLNGMGWYRQAPGKERELVAVITSSGGSTYYADSVKGRFTISRDNAKNTVYLQMNSLKPEDTAVYYCAAQLVRYVGYYRFDYWGQGTQVTVSS	low polyreactivity
QVQLVESGGGLVQAGGSLRVICAASGLIFYGYMGWSRQAPGKERELVAAISYTGGSTYYADSVKGRFTISRDNAKNTVYVQMNSLKPEDTAVYYCARDWRTKWFGYWGQGTQVTVSS	low polyreactivity
QVQLVESGGGLVQAGGSLRLSCAASGFIFYKYTMGWYRQAPGKERELVAAISTSGGRTYYADSVKGRFTISRDNAKNTVYLQMNSLKPEDTAVYYCAAQYSYPYYKVTLYYWGQGTQVTVSS	high polyreactivity

Hi there! I need polyreactivity (PSR sort gate) for each item below, if you can.
1. QVQLVESGGGLVQAGGSLRLSCAASGTFWLYTMGWYRQAPGKERELVAAISLTAGNTYYADSVKGRFTISRDNAKNTVYLQMNSLKPEDTAVYYCAADHYYYTRYEYWGQGTQVTVSS
2. QVQLVESGGGLVQAGGSLRLSCAASGSIFYSYAMGWYRQAPGKDRELVARITSSTGRTYYADSVKGRFTISRDNAKNTVYLQMNSLKPEDTAVYYCAARSASRSMDYWGQGTQVTVSS
3. QVQLVESGGGLVQAGGSLRLSCAASGRTFRWYTMGWYRQAPGKEREFVAAITWSGSSTNYADSVKGRFTISRDNAKNTVYLQMNSLKPEDTAVYYCAAENRRRRDDYWGQGTQVTVSS
4. QVQLVESGGGLVQAGGSLRLSSAASGSTFLLNAMGWYRQAPGKERELVAAITWSGSRTYYADSVKGRFTISRDNPKYNVYLQMNSLKPEDTAVYDCAAEYRDTRRYSYDYWGQGTQVTVSW
5. QVQLVESGGGLFQAGGSLRLSCAASGSTFGFYAIGWYRQAPGKERELVARITYSGGSTYYADSVKGRFTISRDNAKITVYLQLNSLIPEDNAVSYCAARSWTHYFRYDYWGQGTQVTVSS
6. QVQLVESGGGLDQAGGSLRLSCAASGYIFYRNAMGCYRQAPGKERELVAAITYTGGRTYYADSVKGRFTISRDNAKNTVYLQMNSLKPEDTAVYYCNADGRVFVVRPYYDYEYWGQGTQVTVSS
7. QVQLVESGGGLVQAGGSLRLSCAASGSIFGSYAMGWYRQAPGKERELVAGIRSGGSTYYADSVKGRFTISRDNAKNTVYLQMNSLKPEDTAVYYCAGHEEYWGQGTQVTVSS

[out]
1: low polyreactivity; 2: high polyreactivity; 3: high polyreactivity; 4: high polyreactivity; 5: high polyreactivity; 6: low polyreactivity; 7: low polyreactivity
